tested on: Human primary T cells; assay: IL-2 ELISA, Human Primary T Cell, Anti-CD3+CD28+ (Example 3); assay type: cell-based; conditions: Homo sapiens, T-cell, 24 h, anti-CD3+CD28 stimulation
# note: exactly 400 nM is not below, so it is NOT MET; use MET for IC50 strictly under it

Example entries begin here.
{"columns": ["molecule", "group"],
 "data": [
  ["CN1C(C)(C)CC(Nc2nc(Nc3cccc(-c4ccoc4)c3)ncc2F)CC1(C)C [Compound I-105]", "MET"],
  ["C#Cc1cnc(Nc2ccc3c(c2)OC(C)(C)C(=O)N3CC)nc1NC1CC(C)(C)N(C)C(C)(C)C1 [II-152]", "NOT MET"],
  ["CN(C)c1ccc(-c2ccc(Nc3ncc(F)c(NC4CC(C)(C)N(C)C(C)(C)C4)n3)cc2C#N)cn1 [Compound I-426]", "NOT MET"],
  ["CCOc1ccc(Nc2ncc(C#N)c(NC3CC(C)(C)N(C)C(C)(C)C3)n2)cc1-n1nnnc1CC [Compound I-460]", "MET"],
  ["CCN1C(=O)C(F)(F)Oc2cc(Nc3ncc(F)c(NC4CC(C)(C)N(C)C(C)(C)C4)n3)cnc21 [II-27]", "MET"],
  ["CN(C)CCN1C(=O)C(C)(C)Oc2cc(Nc3ncc(F)c(NC4CC(C)(C)N(C)C(C)(C)C4)n3)ccc21 [II-49]", "NOT MET"]
]}

Please turn your attention to the following entry.
Input: Bench note: check whether CCN1C(=O)C(C)(C)Oc2cc(Nc3ncc(C)c(NC4CC(C)(C)N(C)C(C)(C)C4)n3)ccc21 [II-145] shows IC50 below 400 nM
Output: MET
